The origin of these recorded values is PubChem BioAssay (NCI).

The reader will find reported growth inhibition values listed item by item below.
experiment description: NCI Yeast Anticancer Drug Screen. Data for the mlh1 rad18 strain (AID 175)
settings: S. cerevisiae mlh1 rad18 strain growth inhibition; at 5.0 µM (retest, dose inferred, filed as 0.5); active compounds read high
Compounds without any hit were thinned out: in the full panel of roughly 79,000, 15% have a hit.
value type: growth inhibition (%)

[[record]]
compound = "CC(=O)OC/C=C/CCCOC(C)=O"
quantitative_readout = 5

[[record]]
compound = "CCc1cc2c(c3[nH]ccc13)[C@@H](C)C[C@H]2C"
quantitative_readout = 2

[[record]]
compound = "Cc1c(N=Nc2c(S(=O)(=O)O)cc3cc(S(=O)(=O)O)c(N=Nc4c(C)n(C)n(-c5ccccc5)c4=O)c(O)c3c2O)c(=O)n(-c2ccccc2)n1C"
quantitative_readout = 5

[[record]]
compound = "Nc1cc(Br)c2cccnc2c1O"
quantitative_readout = 86

[[record]]
compound = "O=C(Cc1ccccc1)c1ccccc1C(=O)NNc1ccccc1"
quantitative_readout = 5

[[record]]
compound = "Cc1c[nH]c2nc(C)n(-c3ccccc3)c(=N)c12"
quantitative_readout = -2

[[record]]
compound = "C=C(Br)CN(CC)CC"
quantitative_readout = -130

[[record]]
compound = "COc1ccc(NC2Oc3cc4c(cc3C(c3cccc(OC)c3OC)C2C)OCO4)cc1 (stereo unspecified)"
quantitative_readout = -19

[[record]]
compound = "C[n+]1c(-c2ccc(/C=N\\Nc3nnc(S)n3/N=C/c3ccc(-c4cn5ccccc5[n+]4C)cc3)cc2)cn2ccccc21"
quantitative_readout = 10

[[record]]
compound = "C=C(C)C1CC/C(C)=C/CCC2(C)OC2CC/C(CO)=C\\C1O (stereo unspecified)"
quantitative_readout = 87

[[record]]
compound = "COc1cc2c(c(C)c1O)[C@H]1COc3ccccc3[C@H]1O2"
quantitative_readout = -22

